# experimentalParameters: in methanol, 297.25 K
endpoint: solubility (mole fraction)

query: May I ask what solubility (mole fraction) has been recorded for `COC(=O)c1nc[nH]n1` ?
result: 0.00537

====

# experimentalParameters: in cyclohexanone, 317.85 K
endpoint: solubility (mole fraction)
A bare number is all that is needed in reply.

query: I would be grateful if you could share the reported solubility (mole fraction) for `COC(=O)c1nc[nH]n1` .
result: 0.00962

====

# experimentalParameters: in THF, 298.35 K
endpoint: solubility (mole fraction)
Kindly provide the number alone.

query: I am curious: what solubility (mole fraction) value has been reported for `COC(=O)c1nc[nH]n1` ?
result: 0.00323

====

# experimentalParameters: in MIBK, 312.55 K
endpoint: solubility (mole fraction)
I'd appreciate a reply containing only the number, no unit.

query: Item under review: `COC(=O)c1nc[nH]n1` . Reported solubility (mole fraction)?
result: 0.00172

====

# experimentalParameters: in isopropanol, 307.05 K
endpoint: solubility (mole fraction)
Keep it simple and answer with nothing but the number.

query: # get_value(readout='solubility (mole fraction)', item= `COC(=O)c1nc[nH]n1` )
result: 0.00389

====

# experimentalParameters: in 3-pentanone, 292.55 K
endpoint: solubility (mole fraction)
# respond with the number and nothing more

query: Given the compound `COC(=O)c1nc[nH]n1` , what is its reported solubility (mole fraction)?
result: 0.00127

====

# experimentalParameters: in n-butanol, 292.75 K
endpoint: solubility (mole fraction)

query: Would you mind telling me what solubility (mole fraction) value was observed for `COC(=O)c1nc[nH]n1` ?
result: 0.00279

====

# experimentalParameters: in isobutanol, 292.85 K
endpoint: solubility (mole fraction)
Please reply with the value in numeric form only.

query: Any idea what solubility (mole fraction) was measured for `COC(=O)c1nc[nH]n1` ?
result: 0.00182

====

# experimentalParameters: in 3-pentanone, 278.25 K
endpoint: solubility (mole fraction)
Keep it simple and answer with nothing but the number.

query: For the compound `COC(=O)c1nc[nH]n1` , what solubility (mole fraction) is on record?
result: 0.000784

====

# experimentalParameters: in n-propanol, 297.15 K
endpoint: solubility (mole fraction)
Please give only the number in your answer, with no unit.

query: Given `COC(=O)c1nc[nH]n1` , state its recorded solubility (mole fraction).
result: 0.00264

====

# experimentalParameters: in ethanol, 283.15 K
endpoint: solubility (mole fraction)
The answer should be a number; do not append a unit.

query: For `COC(=O)c1nc[nH]n1` , what is its reported solubility (mole fraction)?
result: 0.0016

====

# experimentalParameters: in MIBK, 283.35 K
endpoint: solubility (mole fraction)
Number, no unit, nothing else.

query: Entry `COC(=O)c1nc[nH]n1` : reported solubility (mole fraction) = ?
result: 0.000657

====

# experimentalParameters: in acetone, 283.35 K
endpoint: solubility (mole fraction)
# respond with the number and nothing more

query: solubility (mole fraction) lookup needed for `COC(=O)c1nc[nH]n1` , thanks.
result: 0.00181

====

# experimentalParameters: in isobutanol, 318.65 K
endpoint: solubility (mole fraction)
API doc: respond with a numeric literal and nothing else, no unit.

query: GET /values?readout=solubility (mole fraction)&item= `COC(=O)c1nc[nH]n1`
result: 0.00581

====

# experimentalParameters: in n-propanol, 312.75 K
endpoint: solubility (mole fraction)
// no unit string in output, number only

query: Item `COC(=O)c1nc[nH]n1` has what recorded solubility (mole fraction)?
result: 0.00532

====

# experimentalParameters: in 2-pentanone, 307.35 K
endpoint: solubility (mole fraction)
The reply should be a number, written without any unit.

query: Need solubility (mole fraction) of `COC(=O)c1nc[nH]n1` , thanks.
result: 0.00222

====

# experimentalParameters: in cyclopentanone, 313.65 K
endpoint: solubility (mole fraction)

query: Entry `COC(=O)c1nc[nH]n1` has what solubility (mole fraction)?
result: 0.0053

====

# experimentalParameters: in acetonitrile, 318.95 K
endpoint: solubility (mole fraction)
Just the number, please.

query: Return reported solubility (mole fraction); argument: `COC(=O)c1nc[nH]n1`
result: 0.00384

====

# experimentalParameters: in ethanol, 288.05 K
endpoint: solubility (mole fraction)

query: Which measured solubility (mole fraction) value corresponds to `COC(=O)c1nc[nH]n1` ?
result: 0.00204

====

# experimentalParameters: in 2-pentanone, 283.35 K
endpoint: solubility (mole fraction)
I'd appreciate a reply containing only the number, no unit.

query: Request the reported solubility (mole fraction) associated with `COC(=O)c1nc[nH]n1`
result: 0.000994

====

# experimentalParameters: in acetone, 307.35 K
endpoint: solubility (mole fraction)
// no unit string in output, number only

query: Please look up its solubility (mole fraction): `COC(=O)c1nc[nH]n1`
result: 0.00382

====

# experimentalParameters: in isopropanol, 301.75 K
endpoint: solubility (mole fraction)
Keep it simple and answer with nothing but the number.

query: Query: solubility (mole fraction); subject: `COC(=O)c1nc[nH]n1`
result: 0.00297

====

# experimentalParameters: in methanol, 317.85 K
endpoint: solubility (mole fraction)
// keep it numeric: no unit symbol after the value

query: Could you share which solubility (mole fraction) value was measured for `COC(=O)c1nc[nH]n1` ?
result: 0.0115

====

# experimentalParameters: in 2-pentanone, 292.55 K
endpoint: solubility (mole fraction)
Please give only the number in your answer, with no unit.

query: What value of solubility (mole fraction) has been recorded for this entry: `COC(=O)c1nc[nH]n1`
result: 0.00136

====

# experimentalParameters: in acetonitrile, 278.65 K
endpoint: solubility (mole fraction)
Lab note: write the figure by itself, no unit.

query: solubility (mole fraction) lookup needed for `COC(=O)c1nc[nH]n1` , thanks.
result: 0.000843

====

# experimentalParameters: in 3-pentanone, 288.05 K
endpoint: solubility (mole fraction)
# print the numeric value only

query: Bench note: what solubility (mole fraction) did `COC(=O)c1nc[nH]n1` show?
result: 0.00107

====

# experimentalParameters: in n-butanol, 301.75 K
endpoint: solubility (mole fraction)
Please reply with the number alone, leaving off any unit.

query: Any idea what solubility (mole fraction) was measured for `COC(=O)c1nc[nH]n1` ?
result: 0.00378

====

# experimentalParameters: in cyclopentanone, 277.95 K
endpoint: solubility (mole fraction)

query: Entry `COC(=O)c1nc[nH]n1` : reported solubility (mole fraction) = ?
result: 0.00156

====

# experimentalParameters: in 2-pentanone, 317.35 K
endpoint: solubility (mole fraction)
Returns: the value as a bare number; no unit string appended.

query: Entry `COC(=O)c1nc[nH]n1` has what solubility (mole fraction)?
result: 0.00285

====

# experimentalParameters: in 2-pentanone, 297.95 K
endpoint: solubility (mole fraction)
Output: the number by itself.

query: Return reported solubility (mole fraction); argument: `COC(=O)c1nc[nH]n1`
result: 0.00165

====

# experimentalParameters: in n-propanol, 283.25 K
endpoint: solubility (mole fraction)
I'd appreciate a reply containing only the number, no unit.

query: // returns reported solubility (mole fraction) for input `COC(=O)c1nc[nH]n1`
result: 0.00153

====

# experimentalParameters: in THF, 313.85 K
endpoint: solubility (mole fraction)
Give your answer as a number; write no unit.

query: Which solubility (mole fraction) value is on record for `COC(=O)c1nc[nH]n1` ?
result: 0.00714

====

# experimentalParameters: in ethanol, 301.65 K
endpoint: solubility (mole fraction)
Write the value as a bare number.

query: Quick check: solubility (mole fraction) of `COC(=O)c1nc[nH]n1` ?
result: 0.00378

====

# experimentalParameters: in n-propanol, 301.75 K
endpoint: solubility (mole fraction)
Output spec: single numeric token, no unit.

query: I would be grateful if you could share the reported solubility (mole fraction) for `COC(=O)c1nc[nH]n1` .
result: 0.00325

====

# experimentalParameters: in n-butanol, 283.35 K
endpoint: solubility (mole fraction)

query: // lookup solubility (mole fraction) for `COC(=O)c1nc[nH]n1`
result: 0.00217

====

# experimentalParameters: in isobutanol, 288.25 K
endpoint: solubility (mole fraction)
# answer = number (no unit)

query: Fill in: solubility (mole fraction) of `COC(=O)c1nc[nH]n1` is ___
result: 0.00141

====

# experimentalParameters: in cyclohexanone, 303.05 K
endpoint: solubility (mole fraction)
Respond using a number only.

query: What value of measured solubility (mole fraction) is listed for `COC(=O)c1nc[nH]n1` ?
result: 0.0075

====

# experimentalParameters: in n-propanol, 278.55 K
endpoint: solubility (mole fraction)
The response must contain the number and no unit.

query: Which value of solubility (mole fraction) has been reported for `COC(=O)c1nc[nH]n1` in the records?
result: 0.00137

====

# experimentalParameters: in isopropanol, 297.15 K
endpoint: solubility (mole fraction)
When you answer, write just the number.

query: Given the compound `COC(=O)c1nc[nH]n1` , what is its reported solubility (mole fraction)?
result: 0.00235
